Molecular target: T1, EsCas13d, nuclease-dead (Eubacterium siraeum, UniProt B0MS50, R295A;H300A;R849A;H854A)
T1 sequence: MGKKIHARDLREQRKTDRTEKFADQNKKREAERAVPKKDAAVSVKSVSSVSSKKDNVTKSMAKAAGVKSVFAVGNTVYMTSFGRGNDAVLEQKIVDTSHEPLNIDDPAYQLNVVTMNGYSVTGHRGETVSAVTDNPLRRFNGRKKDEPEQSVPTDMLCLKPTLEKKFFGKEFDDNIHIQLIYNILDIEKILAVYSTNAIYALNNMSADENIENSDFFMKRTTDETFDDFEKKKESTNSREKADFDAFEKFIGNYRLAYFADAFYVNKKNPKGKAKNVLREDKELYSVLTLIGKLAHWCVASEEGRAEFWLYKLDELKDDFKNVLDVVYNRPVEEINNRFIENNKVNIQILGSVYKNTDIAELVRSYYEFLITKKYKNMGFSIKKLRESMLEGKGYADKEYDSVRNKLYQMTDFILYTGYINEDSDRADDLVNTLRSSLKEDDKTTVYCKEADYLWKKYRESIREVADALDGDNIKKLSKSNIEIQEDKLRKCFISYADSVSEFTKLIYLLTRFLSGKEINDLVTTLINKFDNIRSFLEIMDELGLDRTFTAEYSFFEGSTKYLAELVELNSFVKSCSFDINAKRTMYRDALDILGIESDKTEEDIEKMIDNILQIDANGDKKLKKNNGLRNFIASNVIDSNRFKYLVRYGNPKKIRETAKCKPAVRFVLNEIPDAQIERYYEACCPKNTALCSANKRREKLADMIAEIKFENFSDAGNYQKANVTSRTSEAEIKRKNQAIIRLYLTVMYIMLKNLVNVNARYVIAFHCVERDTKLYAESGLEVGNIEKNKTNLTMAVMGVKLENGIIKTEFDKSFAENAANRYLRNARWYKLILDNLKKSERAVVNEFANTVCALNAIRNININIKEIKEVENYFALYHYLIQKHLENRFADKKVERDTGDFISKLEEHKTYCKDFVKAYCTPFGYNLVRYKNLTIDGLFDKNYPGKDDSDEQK
Assay: crRNA (strand 1, pre-loaded); Mg2+; 40 mM Tris-HCl pH 7.5, 150 mM NaCl, 6 mM MgCl2, 1 mM DTT, 0.1% Tween-20, 0.2 mg/ml BSA; 25 C; 10 min per concentration, then washed
Conditions: tags: His6-TwinStrep-SUMO cleaved; N-terminal SNAP kept (SNAP-Surface 488); label: 3' end held by stalled T7 RNA polymerase
# 1 (yes) = Kd below 20 nM (exclusive); 0 (no) = Kd at/above 20 nM

1) target 1 MT 5'PFS GCC 3'PFS CUA (mixed) RNA 1: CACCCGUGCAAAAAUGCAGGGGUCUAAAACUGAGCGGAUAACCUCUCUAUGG RNA 2: GGGAAUGGAUCCACAUCUACGAAUUCGCCCCAUAGAGAGGUUAUCCGCUCACUAAGAUCGGAAGAGCACACGU = 1 (yes)

For the next question, use this binder.
*Q* Item target 1 insG 3' of 7,insG 3' of 7 (mixed) RNA 1: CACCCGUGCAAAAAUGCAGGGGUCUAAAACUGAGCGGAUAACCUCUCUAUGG RNA 2: GGGAAUGGAUCCACAUCUACGAAUUCGUACCAUAGAGAGGUUAUCGGCGCUCACCGAGAUCGGAAGAGCACACGU : Kd beneath 20 nM, strictly?
*A* 1 (yes)

Origin of measurements: paper PMC10786891
